Data credit: ChEMBL document CHEMBL4665778

TARGET: Phosphatidylinositol 4,5-bisphosphate 3-kinase catalytic subunit gamma isoform (Homo sapiens, UniProt P48736)
Sequence (P48736 whole entry, canonical isoform): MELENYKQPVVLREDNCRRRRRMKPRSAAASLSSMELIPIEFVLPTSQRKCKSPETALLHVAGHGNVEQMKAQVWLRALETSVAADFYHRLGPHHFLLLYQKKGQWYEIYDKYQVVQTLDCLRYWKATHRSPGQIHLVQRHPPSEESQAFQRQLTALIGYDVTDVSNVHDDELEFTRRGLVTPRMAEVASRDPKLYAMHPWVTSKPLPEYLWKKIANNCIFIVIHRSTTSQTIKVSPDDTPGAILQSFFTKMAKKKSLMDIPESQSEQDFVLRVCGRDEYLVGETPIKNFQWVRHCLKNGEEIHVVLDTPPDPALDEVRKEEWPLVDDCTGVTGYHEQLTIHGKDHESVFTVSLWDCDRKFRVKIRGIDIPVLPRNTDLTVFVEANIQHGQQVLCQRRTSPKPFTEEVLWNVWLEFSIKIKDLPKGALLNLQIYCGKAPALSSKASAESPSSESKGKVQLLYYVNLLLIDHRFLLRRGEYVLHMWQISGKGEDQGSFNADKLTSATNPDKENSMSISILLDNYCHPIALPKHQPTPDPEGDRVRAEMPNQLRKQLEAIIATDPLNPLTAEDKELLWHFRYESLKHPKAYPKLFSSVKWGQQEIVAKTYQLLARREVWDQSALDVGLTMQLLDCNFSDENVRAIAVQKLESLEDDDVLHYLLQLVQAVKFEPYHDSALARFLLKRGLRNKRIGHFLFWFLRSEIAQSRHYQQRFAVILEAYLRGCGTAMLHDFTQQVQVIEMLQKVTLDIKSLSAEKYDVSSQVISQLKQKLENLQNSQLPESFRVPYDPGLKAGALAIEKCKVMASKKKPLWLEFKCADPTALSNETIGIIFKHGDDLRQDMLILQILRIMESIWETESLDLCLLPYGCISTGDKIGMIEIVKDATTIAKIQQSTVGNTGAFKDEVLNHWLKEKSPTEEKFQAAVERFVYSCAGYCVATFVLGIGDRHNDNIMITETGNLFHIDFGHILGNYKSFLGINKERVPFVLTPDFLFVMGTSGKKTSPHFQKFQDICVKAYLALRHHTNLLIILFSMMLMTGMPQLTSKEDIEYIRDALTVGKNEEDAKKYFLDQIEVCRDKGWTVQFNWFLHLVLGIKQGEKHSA
MEASUREMENT NAME: log10(IC50) (log10 of the value in nM)

COMPOUND: Cc1cc(-c2ccc3nc(NC(=O)N4CCC[C@H]4C(N)=O)cn3n2)cc2c1C(=O)N([C@@H](C)C1CC1)C2
log10(IC50): 0.46

COMPOUND: Cc1cc(-c2ccn3nc(N)c(-c4ccncn4)c3n2)cc2c1C(=O)N([C@@H](C)C1CC1)C2
log10(IC50): 0.88

COMPOUND: Cc1cc(-c2ccc3nc(N)cn3n2)cc2c1C(=O)N([C@@H](C)C1CC1)C2 (racemic)
log10(IC50): 2.63

COMPOUND: Cc1cc(-c2ccc3nc(NS(C)(=O)=O)cn3n2)cc2c1C(=O)N([C@@H](C)C1CC1)C2
log10(IC50): 3.72

COMPOUND: Cc1cc(-c2c(N)nn3ccc(-c4cc(C)c5c(c4)CN([C@@H](C)C4CC4)C5=O)nc23)ccc1C(=O)O
log10(IC50): 0.34

COMPOUND: C[C@@H](C1CC1)N1Cc2cc(-c3ccn4nc(N)c(-c5ncccn5)c4n3)cc(C(F)(F)F)c2C1=O
log10(IC50): 1.72

COMPOUND: Cc1cc(-c2ccc3nc(NC(=O)c4ccccc4)cn3n2)cc2c1C(=O)N([C@@H](C)C1CC1)C2
log10(IC50): 1.97

COMPOUND: CC(=O)Nc1nc2cc(-c3cc(C)c4c(c3)CN([C@@H](C)C3CC3)C4=O)ccc2[nH]1 (racemic)
log10(IC50): 2.68

COMPOUND: Cc1ncc(-c2c(N)nn3ccc(-c4cc(C)c5c(c4)CN([C@@H](C)C4CC4)C5=O)nc23)o1
log10(IC50): 0.77

COMPOUND: CC(C)c1cc(-c2cnn3ccc(-c4cc5c(c(C(F)(F)F)c4)C(=O)N([C@@H](C)C4CC4)C5)nc23)ccc1C(=O)O
log10(IC50): 0.32

COMPOUND: Cc1cc(-c2ccn3nc(N)nc3c2)cc2c1C(=O)N([C@@H](C)C1CC1)C2
log10(IC50): 1.70

COMPOUND: Cc1cc(-c2ccc3nc(NC(=O)C(C)C)cn3n2)cc2c1C(=O)N([C@@H](C)C1CC1)C2
log10(IC50): 1.85
